- target.of.assay: delta opioid receptor (human) (UniProt P41143)
- Sequence (P41143 whole entry): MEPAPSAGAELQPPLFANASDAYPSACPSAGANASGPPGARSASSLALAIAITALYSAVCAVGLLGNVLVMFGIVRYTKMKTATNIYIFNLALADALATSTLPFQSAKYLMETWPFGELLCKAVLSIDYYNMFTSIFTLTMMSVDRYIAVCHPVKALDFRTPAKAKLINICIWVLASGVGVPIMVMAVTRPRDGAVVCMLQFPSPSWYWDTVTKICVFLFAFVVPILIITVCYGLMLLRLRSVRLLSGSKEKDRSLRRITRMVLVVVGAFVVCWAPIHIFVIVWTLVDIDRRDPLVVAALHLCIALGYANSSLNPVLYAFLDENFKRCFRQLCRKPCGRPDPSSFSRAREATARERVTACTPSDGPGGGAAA
- run.description: Log(tau/KA) transduction coefficient (log10 (M-1)); higher = more effective agonism
- condition.notes: receptor: human DOR; cAMP
readout.name: Log(tau/KA) transduction coefficient (log10)

{"columns": ["compound", "observed.result"],
 "data": [
  ["CSCC[C@H](NC(=O)[C@H](Cc1ccccc1)NC(=O)CNC(=O)CNC(=O)[C@@H](N)Cc1ccc(O)cc1)C(=O)O [Met-Enk]", 8.98],
  ["CO[C@@]12CC[C@@]3(C[C@@H]1[C@](C)(O)C(C)(C)C)[C@H]1Cc4ccc(O)c5c4[C@@]3(CCN1CC1CC1)[C@H]2O5 [Buprenorphine]", 8.45],
  ["COc1ccc2c3c1O[C@H]1C(=O)CC[C@@]4(O)[C@@H](C2)N(C)CC[C@]314 [Oxycodone]", 6.63],
  ["CN(C)C(=O)C(CCN1CCC(O)(c2ccc(Cl)cc2)CC1)(c1ccccc1)c1ccccc1 [Loperamide]", 7.28],
  ["CN1CC[C@]23c4c5ccc(O)c4O[C@H]2[C@@H](O)C=C[C@H]3[C@H]1C5 [Morphine]", 8.19]
]}

====

- target.of.assay: delta opioid receptor (rat)
- run.description: Log(tau/KA) transduction coefficient (log10 (M-1)); higher = more effective agonism
- condition.notes: receptor: rat DOR; βarrestine 2-GRK6
Reported values of Log(tau/KA) transduction coefficient (log10) for individual entries
readout.name: Log(tau/KA) transduction coefficient (log10)

{"columns": ["molecule", "target.of.assay", "observed.result"],
 "data": [
  ["COc1ccc2c3c1O[C@H]1C(=O)CC[C@@]4(O)[C@@H](C2)N(C)CC[C@]314", "delta opioid receptor (rat)", 3.31],
  ["CN(C)C(=O)C(CCN1CCC(O)(c2ccc(Cl)cc2)CC1)(c1ccccc1)c1ccccc1 [Loperamide]", "delta opioid receptor (rat)", 4.48],
  ["CSCC[C@H](NC(=O)[C@H](Cc1ccccc1)NC(=O)CNC(=O)CNC(=O)[C@@H](N)Cc1ccc(O)cc1)C(=O)O", "delta opioid receptor (rat)", 6.83],
  ["CN1CC[C@]23c4c5ccc(O)c4O[C@H]2[C@@H](O)C=C[C@H]3[C@H]1C5", "delta opioid receptor (rat)", 4.2]
]}

====

- target.of.assay: delta opioid receptor (rat) (UniProt P33533)
- Sequence (P33533 whole entry): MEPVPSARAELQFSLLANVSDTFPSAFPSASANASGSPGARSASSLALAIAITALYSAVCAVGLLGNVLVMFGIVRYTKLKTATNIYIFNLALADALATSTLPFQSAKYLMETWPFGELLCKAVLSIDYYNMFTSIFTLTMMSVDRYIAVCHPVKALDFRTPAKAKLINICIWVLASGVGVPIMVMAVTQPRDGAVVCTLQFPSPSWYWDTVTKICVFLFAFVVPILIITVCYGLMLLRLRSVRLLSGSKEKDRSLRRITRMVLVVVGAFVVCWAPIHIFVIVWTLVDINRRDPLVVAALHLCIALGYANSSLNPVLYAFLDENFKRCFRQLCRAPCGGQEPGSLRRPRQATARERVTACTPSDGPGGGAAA
- run.description: Log(tau/KA) transduction coefficient (log10 (M-1)); higher = more effective agonism
- condition.notes: receptor: rat DOR; βarrestine 2
Catalogue of Log(tau/KA) transduction coefficient (log10) values
readout.name: Log(tau/KA) transduction coefficient (log10)

{"columns": ["compound", "observed.result"],
 "data": [
  ["CSCC[C@H](NC(=O)[C@H](Cc1ccccc1)NC(=O)CNC(=O)CNC(=O)[C@@H](N)Cc1ccc(O)cc1)C(=O)O", 6.58],
  ["CN1CC[C@]23c4c5ccc(O)c4O[C@H]2[C@@H](O)C=C[C@H]3[C@H]1C5", 4.16],
  ["COc1ccc2c3c1O[C@H]1C(=O)CC[C@@]4(O)[C@@H](C2)N(C)CC[C@]314", 3.12],
  ["CN(C)C(=O)C(CCN1CCC(O)(c2ccc(Cl)cc2)CC1)(c1ccccc1)c1ccccc1 [Loperamide]", 4.1]
]}
